Items are presented alongside their recorded melting point.
quantity: melting point

molecule=CCOC(=O)c1cccc(-c2nccs2)c1 result="50 to 52 °C"
molecule="CC(C)CCCC(C)C1CCC2C3CC=C4C=CCCC4(C)C3CCC12C (centres undefined)" result="80 °C"
molecule=Cc1cc(C)c(S(=O)(=O)n2ccnc2)c(C)c1 result="95 to 99 °C"
molecule=CNC(=O)c1ccccc1N result="75 to 76 °C"

* * *

Items are presented alongside their recorded melting point.
quantity: melting point (°C)

compound=c1ccc2c(c1)ccc1[nH]c3ccc4ccccc4c3c12 result=158
compound=Cn1ncc2cc([N+](=O)[O-])ccc21 result=160
compound=CC(C)(C)c1cc2c(O)c(c1)Cc1cc(C(C)(C)C)cc(c1O)Cc1cc(C(C)(C)C)cc(c1O)Cc1cc(C(C)(C)C)cc(c1O)Cc1cc(C(C)(C)C)cc(c1O)Cc1cc(C(C)(C)C)cc(c1O)C2 result=300
compound="COc1ccccc1C1Nn2c(COc3ccccc3)nnc2S1 (configuration not stated)" result=126
compound=Nc1nn2c(-c3ccccc3)cc(=O)[nH]c2c1/N=N/c1ccc(Cl)cc1 result=312
compound=Cc1nc2cc([N+](=O)[O-])ccc2[nH]1 result=224
compound=COc1nc(C)nc(NC(=O)NS(=O)(=O)c2ccccc2Cl)n1 result=176
compound=Cc1nc2sccn2c1C(=O)NN result=150

* * *

quantity: melting point

molecule=CC(=O)CCc1ccc(CCC(C)=O)cc1 result="55 to 56 °C"
molecule=CCCCCBr result="-92.7 °C"
molecule="CCOC(=O)NC1C(N(C)C)C2CCC1(C)C2(C)C (configuration not stated)" result="237 °C"
molecule=Cc1c(-c2ccccc2)c2ccccc2n1C result="111 °C"
molecule=O=C(O)Cn1cc(Cl)c(=O)c(Cl)c1 result="259 to 263 °C"
molecule=O=C(O)/C=C/c1ccc(I)o1 result="145 °C"
molecule=CCCN(CCC)c1c([N+](=O)[O-])cc(S(C)(=O)=O)cc1[N+](=O)[O-] result="150 °C"
molecule=O=C(O)c1ccc(C(F)(F)F)nc1 result="192 °C"
molecule="O=C1OC=CC(c2ccccc2)Cc2ccccc21 (configuration not stated)" result="120 °C"
molecule=O=C(O)c1cc(Br)c(C(=O)O)cc1Br result="315 to 318 °C"
molecule=O=C(Cl)c1ccc2noc(-c3ccc(Cl)cc3)c2c1 result="180 °C"
molecule=O=Cc1ccc(-c2cccnc2)cc1 result="55 °C"

* * *

quantity: melting point

smiles_code=Nc1nnc(Cc2ccccc2)[nH]1 result="171 to 173 °C"
smiles_code=O=S(=O)(Cl)c1cccc2nonc12 result="77 to 78 °C"
smiles_code=Nn1nnc2ccccc21 result="81 to 85 °C"
smiles_code=Cn1ncc(C=O)c1N result="161 to 163 °C"
smiles_code=FC(F)(F)c1nn(CN2CCN(Cn3nc(C(F)(F)F)n(N=Cc4cccs4)c3=S)CC2)c(=S)n1N=Cc1cccs1 result="187 °C"
smiles_code=Sc1ccccc1 result="-14.9 °C"
smiles_code=CCCCOC(=O)C1(O)c2ccccc2-c2ccccc21 result="71 °C"
smiles_code=Cn1ncc(Br)c1N result="104 to 105 °C"
smiles_code=O=S1(=O)c2ccccc2-c2ccccc21 result="231 to 236 °C"

* * *

quantity: melting point (°C)

compound="CCOC(=O)C(Cc1c[nH]c2ccccc12)NC(C)=O (stereo not given)" result=106
compound=Cc1ccc2ccc3ccc(C)nc3c2n1 result=160
compound=NC(=O)c1cc(Cl)ccc1N result=171
compound=CCCCCCCCCCCCc1ccccc1S(=O)(=O)O result=10
compound="CC1CCC(C(C)C)C(OC(=O)OC2CC(C)CCC2C(C)C)C1 (stereo not given)" result=106
compound=Cc1ccccc1[N+](=O)[O-] result=-4
compound=COC(=O)c1ccccc1C#N result=50
compound=O=[N+]([O-])c1c2c(c([N+](=O)[O-])c3c1CCCN3)NCCC2 result=187
compound=CCOC(=O)c1nn(-c2ccc(C)cc2)c(=N)c(C#N)c1C result=150
compound="CNCC(O)c1ccc(O)cc1 (stereo not given)" result=184
compound="CCOC(=O)C(Br)C(C)Br (stereo not given)" result=58.5
compound=Cc1ccc2c3ccccc3c3ccccc3c2c1 result=100
compound=Cc1ccc(C)c(N2CCNCC2)c1 result=45
compound=O=C1CCC(=O)N1CN1C(=O)C(=Cc2ccco2)SC1=S result=166
compound="CCCCC(CC)COC(=O)C=CC(=O)OCC(CC)CCCC (stereo not given)" result=-10
compound=CN(CC(=O)O)N=O result=66.5
compound=CCCCCCNC(=O)c1ccc(O)c(O)c1 result=140
compound=FC(F)(Br)C(F)(F)C(F)(F)C(F)(F)C(F)(F)C(F)(F)C(F)(F)C(F)(F)Br result=40
compound=O=C(Nc1ccccc1)c1cc2ccccc2cc1O result=248
compound="CC[C@@H]1CCC[C@H]1CC (relative stereo)" result=-95
compound=CC(=O)Oc1ccc(OC(C)=O)c(C)c1 result=41
compound=O=CC=CC=Cc1ccccc1 result=42.5
compound=CCCC[N+](=O)[O-] result=-81.3
compound=CCOc1ccc(Br)cc1C=O result=69
compound=COc1ccc(O)c(F)c1F result=105
compound=c1ccc2c(c1)ccc1[nH]c3ccccc3c12 result=134

* * *

quantity: melting point (°C)

compound=O=Cc1ccc(C#Cc2ccccc2)s1 result=91
compound=CC(=O)c1ccccc1[N+](=O)[O-] result=28.5
compound=CNCCc1c[nH]c2ccccc12 result=88
compound=CCOC(=O)c1cc2c(=O)oc3ccccc3c2n(Cc2ccccc2)c1=O result=212
compound="CC1(C)CC(=O)C2=C(C1)Nc1ccc3ccccc3c1C2c1ccc(Cl)cc1Cl (stereo not given)" result=348
compound=CC(=O)c1ccc(S(=O)(=O)NC(=O)NC2CCCCC2)cc1 result=188
compound="CC1CCC(C(C)C)C(OC(=O)C2=CCC(C(=O)OC3CC(C)CCC3C(C)C)=CC2)C1 (stereo not given)" result=68
compound=Cc1ccc(I)cc1[N+](=O)[O-] result=60
compound=Cc1cc(Br)cc([N+](=O)[O-])c1 result=83
compound="Cc1ccc(C(O)c2ccccc2O)cc1 (stereo not given)" result=105
compound=O=Nc1c(O)ccc2ccccc12 result=110
compound=COc1ccc(CNC2=CC(=O)c3ccccc3C2=O)cc1 result=164
compound=Cc1ccccc1OC(=O)Oc1ccccc1C result=60
compound=Cc1ccc2c(c1)C(=O)c1ccc(C)cc1C2=O result=240
compound=COc1ccccc1C(=O)N(NC(=O)c1ccccc1)C(C)(C)C result=182
compound="CCCCCCCCCCCCSC(C(=O)Nc1cc(C)c(O)c(C)c1C)c1ccccc1 (stereo not given)" result=130
compound=O=S(=O)(Cl)c1cc(Br)ccc1Br result=71
compound=ClCc1ccc2c(c1)OCO2 result=20.5
compound=NCCc1c[nH]cn1 result=86
compound=NC(=O)c1ccco1 result=141
compound=O=C1CNCCN1 result=132
compound=O=c1on(-c2ccccc2)cc1-c1ccccc1 result=175
compound=CSc1nn2c(C(F)(F)F)cc(C(F)(F)F)nc2c1C(N)=O result=250
compound=CC1=C(C(=O)Nc2ccccc2)S(=O)(=O)CCO1 result=120

* * *

quantity: melting point

molecule="Cc1ccc(S(=O)(=O)OCC2Cc3ccccc3O2)cc1 (stereo not given)" result="72 to 73 °C"
molecule=CN(C)S(=O)(=O)N(SC(F)(Cl)Cl)c1ccccc1 result="106 °C"
molecule=Nc1ccc2cc(C(=O)O)ccc2c1 result="222 to 227 °C"
molecule=Cn1ncc(C(N)=O)c1N result="231 to 232 °C"
molecule=CN1CCN(C(=S)SSC(=S)N2CCN(C)CC2)CC1 result="142 to 143 °C"

* * *

Items are presented alongside their recorded melting point.
quantity: melting point

compound=c1csc(-c2cc[nH]n2)c1 result="97 to 99 °C"
compound="O=C(c1ccc2ccccc2c1)C(Br)c1ccccc1 (centres undefined)" result="101 to 108 °C"
compound="COc1ccc(C(N)C(N)c2ccc(OC)cc2)cc1 (centres undefined)" result="148 to 152 °C"
compound=Cc1nc(N)nc(NN)n1 result="250 °C"
compound=c1ccc(-c2nnc(NC3=NCCN3)s2)cc1 result="192 to 194 °C"
compound=Cc1n[nH]c(C)c1-c1ccccc1 result="133 to 134 °C"
compound="O=c1ccn(C2CC(O)C(CO)O2)c(=O)[nH]1 (centres undefined)" result="166 °C"
compound=O=C(Oc1c(F)c(F)c(F)c(F)c1F)c1ccccc1N1CCOCC1 result="87 to 90 °C"
compound=CC1=C(C)C(=O)OC1=O result="96 °C"
compound=CC(=O)c1[nH]c(C)cc1C result="118 to 121 °C"
compound=CC(C(=O)O)=C(c1ccccc1)c1ccccc1 result="163 °C"
compound=COC(=O)c1cscc1Sc1ccc(Cl)cc1 result="77 to 79 °C"
compound=O=C1CC(c2ccccc2)=NO1 result="150 to 154 °C"
compound="CCCCNC(=O)OCC(C)(CCC)COC(N)=O (centres undefined)" result="50 °C"
